What GI50 was measured for each of the following?
Tested on: SN12C
Assay summary: NCI tumour cell line growth inhibition, 48 h
The source made the active and inactive calls. Cut-off read from the data, not from the text of the source: active = GI50 up to about 1.1 µM and inactive = higher.

[
  {
    "Compound": "CN(C)/C(=N\\C#N)NCc1ccccc1",
    "Result": "> 100 µM (inactive)"
  },
  {
    "Compound": "Cc1ccc(-c2cc(-c3ccco3)c(C#N)c(=O)n2C2OC(OC(=O)c3ccccc3)C(OC(=O)c3ccccc3)C2OC(=O)c2ccccc2)cc1 (stereo not drawn)",
    "Result": "> 100 µM (inactive)"
  },
  {
    "Compound": "Nc1ccn([C@H]2CO[C@@H](CO)[C@@H]2O)c(=O)n1",
    "Result": "> 100 µM (inactive)"
  },
  {
    "Compound": "CC(=O)O[C@]12CCCCC1C1(O)C(O)CCCCC12 (stereo partly drawn)",
    "Result": "> 100 µM (inactive)"
  },
  {
    "Compound": "C[C@H](CCC(=O)O)[C@H]1CC[C@@]2(C)[C@@H]3C(=O)C[C@H]4C(C)(C)[C@@H](O)CC[C@]4(C)[C@H]3C(=O)C[C@]12C",
    "Result": "> 100 µM (inactive)"
  }
]

For every item below, please supply its GI50.
1. COc1ccc(NC(=S)c2ccc(CN3CCCCC3)s2)cc1
2. Fc1cc(C2=C[C@H](c3ccc4c(c3)OCO4)NC(=S)N2)c(Cl)cc1Cl
3. C[n+]1c(-c2ccc(/C=N/Nc3n[nH]c(=S)n3N/N=C/c3ccc(-c4cn5ccccc5[n+]4C)cc3)cc2)cn2ccccc21

47 µM (inactive)
27.4 µM (inactive)
> 100 µM (inactive)
